# Lookup of reported fold change of affinity keyed by entry
- Target system: T1, Human CD137 ECD (human)
- T1 construct: entry includes C-terminal His-tag and biotin acceptor peptide; also called human CD137 extracellular domain; 4-1BB
- T1 sequence (chain, as listed by the source limits assumed): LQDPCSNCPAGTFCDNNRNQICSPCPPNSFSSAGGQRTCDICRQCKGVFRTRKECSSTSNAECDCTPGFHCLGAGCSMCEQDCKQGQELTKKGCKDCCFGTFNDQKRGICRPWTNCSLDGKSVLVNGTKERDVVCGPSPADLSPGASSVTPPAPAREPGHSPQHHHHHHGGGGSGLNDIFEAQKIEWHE
- Assay procedure: Biacore SPR, vs parent H183/L072
Just the number in fold, nothing appended.

Solved cases (4 shown):
H183/L072 VL Y32W (antibody, name in Kabat numbering, V domains shown, Dual-Ig) VH: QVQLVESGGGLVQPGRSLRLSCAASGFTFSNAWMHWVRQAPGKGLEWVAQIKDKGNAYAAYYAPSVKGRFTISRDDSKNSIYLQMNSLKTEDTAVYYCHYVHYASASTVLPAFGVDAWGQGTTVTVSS VL: DIVMTQSPLSLPVTPGEPASISCQASQELVHMNRNTWLHWYQQKPGQAPRLLIYKVSNRFPGVPDRFSGSGSGTDFTLKISRVEAEDVGVYYCAQGTSVPFTFGQGTKLEIK = 0.7
H183/L072 VL H34P (antibody, name in Kabat numbering, V domains shown, Dual-Ig) VH: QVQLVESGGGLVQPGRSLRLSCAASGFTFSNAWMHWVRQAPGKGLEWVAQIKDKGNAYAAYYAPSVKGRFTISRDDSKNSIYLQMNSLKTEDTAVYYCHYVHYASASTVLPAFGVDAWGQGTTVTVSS VL: DIVMTQSPLSLPVTPGEPASISCQASQELVHMNRNTYLPWYQQKPGQAPRLLIYKVSNRFPGVPDRFSGSGSGTDFTLKISRVEAEDVGVYYCAQGTSVPFTFGQGTKLEIK = 0
H183/L072 VL H34I (antibody, name in Kabat numbering, V domains shown, Dual-Ig) VH: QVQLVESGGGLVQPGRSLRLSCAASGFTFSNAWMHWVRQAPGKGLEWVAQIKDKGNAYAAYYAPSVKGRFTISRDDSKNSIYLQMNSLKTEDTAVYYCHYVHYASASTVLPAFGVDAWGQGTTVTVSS VL: DIVMTQSPLSLPVTPGEPASISCQASQELVHMNRNTYLIWYQQKPGQAPRLLIYKVSNRFPGVPDRFSGSGSGTDFTLKISRVEAEDVGVYYCAQGTSVPFTFGQGTKLEIK = 0
H183/L072 VL S52A (antibody, name in Kabat numbering, V domains shown, Dual-Ig) VH: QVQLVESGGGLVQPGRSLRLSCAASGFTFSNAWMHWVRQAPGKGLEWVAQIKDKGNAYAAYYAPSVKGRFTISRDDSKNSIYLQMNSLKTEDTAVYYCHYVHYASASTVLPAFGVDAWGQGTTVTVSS VL: DIVMTQSPLSLPVTPGEPASISCQASQELVHMNRNTYLHWYQQKPGQAPRLLIYKVANRFPGVPDRFSGSGSGTDFTLKISRVEAEDVGVYYCAQGTSVPFTFGQGTKLEIK = 1

Next:
I am curious: what fold change of affinity value has been reported for H183/L072 VL S26G (antibody, name in Kabat numbering, V domains shown, Dual-Ig) VH: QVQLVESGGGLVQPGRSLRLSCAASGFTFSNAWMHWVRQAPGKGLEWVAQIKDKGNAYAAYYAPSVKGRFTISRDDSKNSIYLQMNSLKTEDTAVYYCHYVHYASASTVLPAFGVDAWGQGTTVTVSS VL: DIVMTQSPLSLPVTPGEPASISCQAGQELVHMNRNTYLHWYQQKPGQAPRLLIYKVSNRFPGVPDRFSGSGSGTDFTLKISRVEAEDVGVYYCAQGTSVPFTFGQGTKLEIK ?
0.9
